- Test system: endoproteinase activity of G. pallida
- test.name: Endoproteinase activity of G. pallida female homogenate on RUBISCO with inhibitors/activators (SDS-PAGE densitometry)
- Type: biochemical, Globodera pallida
- details: RUBISCO substrate, pH 5.7, 25 C, mean ± SEM, control 100 ± 7, 30 min
Exercise: for every item that follows, state its recorded % enzyme activity.

Here is how some compounds turned out for % enzyme activity.
-- ask # get_value(readout='% enzyme activity', item= OC(CS)C(O)CS (stereo not shown) )
-- reply 128 ± 11%

-- ask How about this compound: CC(C)C[C@H](NC(=O)[C@H]1O[C@@H]1C(=O)O)C(=O)NCCCCN=C(N)N
-- reply 79 ± 6%

-- ask How about this compound: N[C@@H](CS)C(=O)O
-- reply 112 ± 5%

We next turn to a different compound, shown below.
-- ask # get_value(readout='% enzyme activity', item= CC(=O)[O][Hg][c]1ccccc1 )
-- reply 11 ± 6%
